Form field: T/C (one value per entry).
Tested on: L1210 leukemia ip in BDF1 mice, survival T/C
Experiment: NCI In Vivo Anticancer Drug Screen. Data for tumor model L1210 Leukemia (intraperitoneal) in B6D2F1 (BDF1) mice
Conditions: endpoint: mean survival time; dose: 10.0 mg/kg/injection; schedule: Q01DX001 (ip); vehicle: saline; higher = longer survival
Inconclusive results and toxic doses are left out.

{"columns": ["COMPOUND", "T/C"],
 "data": [
  ["CC1OC2CC(=O)OC2C2=C1C(=O)c1c(O)c3c(c(O)c1C2=O)C1CC(O)C3(O)C(C)O1 (stereo unspecified)", "102 % of control"],
  ["Oc1ccc2ccccc2c1N=Nc1cc[c]([Hg][Cl])cc1", "107 % of control"],
  ["CCC(C)CC(C)c1ccncc1 (stereo unspecified)", "100 % of control"],
  ["N#CC(C#N)=Cc1ccco1", "102 % of control"],
  ["c1ccc(CCCn2cnc3cnccc32)cc1", "103 % of control"],
  ["NC(=Nc1ccc(Cl)cc1)N/N=C/c1ccc(Cl)cc1", "100 % of control"]
]}

* * *

System: L1210 leukemia ip in BDF1 mice, survival T/C
Experiment: NCI In Vivo Anticancer Drug Screen. Data for tumor model L1210 Leukemia (intraperitoneal) in B6D2F1 (BDF1) mice
Details: endpoint: mean survival time; dose: 300.0 mg/kg/injection; schedule: Q01DX001 (ip); vehicle: saline; higher = longer survival
Toxic doses and inconclusive results are not listed.
The entries below are paired with their reported T/C.

{"columns": ["CHEMICAL_STRUCTURE", "T/C"],
 "data": [
  ["C=C(C)C1(CCC)C(=O)NC(=S)NC1=O", "116 % of control"],
  ["O=Cc1ccc[n+](Cc2ccccc2)c1", "102 % of control"],
  ["CCCCCCCCCCCCCCCCSS(=O)(=O)c1ccc(C)cc1", "90 % of control"],
  ["C=CC(=O)NCCN(C)C", "104 % of control"],
  ["Cc1ccc(S(=O)(=O)NN=C2CCCCC2)cc1", "90 % of control"],
  ["O=c1c2ccccc2[nH]c(=S)n1-c1cccc(Cl)c1", "91 % of control"]
]}

* * *

System: L1210 leukemia ip in BDF1 mice, survival T/C
Experiment: NCI In Vivo Anticancer Drug Screen. Data for tumor model L1210 Leukemia (intraperitoneal) in B6D2F1 (BDF1) mice
Conditions: endpoint: mean survival time; dose: 50.0 mg/kg/injection; schedule: Q04DX002 (ip); vehicle: saline; higher = longer survival
Toxic doses and inconclusive results are not listed.
Overview of reported T/C across a group of compounds:

{"columns": ["COMPOUND", "TARGET_OF_ASSAY", "T/C"],
 "data": [
  ["CC1(C)N=C(SCC(=O)c2ccccc2)NC1(C)C", "L1210 leukemia ip in BDF1 mice, survival T/C", "101 % of control"],
  ["CCOC(=O)/C(C#N)=C/c1cccn1Cc1ccc2c(c1)OCO2", "L1210 leukemia ip in BDF1 mice, survival T/C", "105 % of control"],
  ["CCCCCCCN1CCCC(OC(=O)N(C)C)C1 (centres undefined)", "L1210 leukemia ip in BDF1 mice, survival T/C", "103 % of control"],
  ["C=CCc1cn(C2CC(O)C(CO)O2)c(=O)[nH]c1=O (centres undefined)", "L1210 leukemia ip in BDF1 mice, survival T/C", "91 % of control"]
]}

* * *

Tested on: L1210 leukemia ip in BDF1 mice, survival T/C
Experiment: NCI In Vivo Anticancer Drug Screen. Data for tumor model L1210 Leukemia (intraperitoneal) in B6D2F1 (BDF1) mice
Details: endpoint: mean survival time; dose: 50.0 mg/kg/injection; schedule: Q04DX002 (ip); vehicle: saline with Tween-80; higher = longer survival
Inconclusive results and toxic doses are left out.
As shown below, each of these compounds has a reported T/C value.
READOUT_KIND: T/C

{"columns": ["COMPOUND", "READOUT_VALUE"],
 "data": [
  ["CC(C)P(=O)(CCP(=O)(c1ccccc1)c1ccccc1)c1ccccc1 (centres undefined)", "106 % of control"],
  ["N#CCC(=O)NCCc1ccccn1", "97 % of control"],
  ["O=C1C=CC(c2ccccc2)(c2ccccc2)C=C1", "101 % of control"],
  ["CCCCCCCCCC[As]1c2ccccc2Nc2ccccc21", "92 % of control"]
]}

* * *

Tested on: L1210 leukemia ip in BDF1 mice, survival T/C
Experiment: NCI In Vivo Anticancer Drug Screen. Data for tumor model L1210 Leukemia (intraperitoneal) in B6D2F1 (BDF1) mice
Conditions: endpoint: mean survival time; dose: 150.0 mg/kg/injection; schedule: Q01DX001 (ip); vehicle: saline; higher = longer survival
Toxic doses and inconclusive results are not listed.
# key: entry, value: T/C
READOUT_KIND: T/C

{"columns": ["MOLECULE", "READOUT_KIND", "READOUT_VALUE"],
 "data": [
  ["CCC(O)C(CCN(C)C)(C(=O)N(C)C)c1ccccc1 (stereo unspecified)", "T/C", "100 % of control"],
  ["O=C(c1ccccc1)N(O)c1ccccc1", "T/C", "104 % of control"],
  ["CNc1nc(N(C)C)nc(N(C)C)n1", "T/C", "94 % of control"],
  ["O=C(O)CCNCC(=O)O", "T/C", "100 % of control"],
  ["C[N+]1(C2CCC3CCC2C3=O)CCCC1 (stereo unspecified)", "T/C", "97 % of control"],
  ["Nc1ncc(-c2ccc(CNc3ccc(C(=O)NC(CC(=O)O)CC(=O)O)cc3)cc2)c(N)n1", "T/C", "115 % of control"],
  ["C/C=C/CC1(CC)C(=O)NC(=S)NC1=O", "T/C", "113 % of control"],
  ["C=C(C)C1(C)C(=O)NC(=S)NC1=O", "T/C", "100 % of control"],
  ["Cc1ccc(S(=O)(=O)NN=C2CCCCC2)cc1", "T/C", "90 % of control"],
  ["CCOC(=O)C12CCCC(C1=O)[N+](CC)(CC)CC2 (stereo unspecified)", "T/C", "101 % of control"],
  ["O=C(O)c1cc(-c2ccc3cc4c(cc3c2)OCO4)nc2ccccc12", "T/C", "101 % of control"]
]}

* * *

Listing of entries alongside the reported T/C.
System: L1210 leukemia ip in BDF1 mice, survival T/C
Experiment: NCI In Vivo Anticancer Drug Screen. Data for tumor model L1210 Leukemia (intraperitoneal) in B6D2F1 (BDF1) mice
Conditions: endpoint: mean survival time; dose: 5.0 mg/kg/injection; schedule: Q01DX001 (ip); vehicle: saline; higher = longer survival
Method: The antitumor activity of compounds was measured in mice bearing transplantable tumors. Survival or tumor size were measured and the results are expressed as the measurement made in the treated group (T) divided by the measurement made in the vehicle treated control group (C). The tumor model used in this assay is L1210 Leukemia (intraperitoneal) in B6D2F1 (BDF1) mice
Toxic doses and inconclusive results are not listed.

{"columns": ["MOLECULE", "T/C"],
 "data": [
  ["CN(C)c1ncnc2c1c(Br)cn2C1OC(CO)C(O)C1O (centres undefined)", "101 % of control"],
  ["N#CC(C#N)=Cc1ccco1", "91 % of control"],
  ["CC(C)C(C)(O)C#N (centres undefined)", "92 % of control"],
  ["O=[N+]([O-])c1cc(/C=N\\N=C\\c2ccco2)ccc1Cl", "100 % of control"]
]}

* * *

System: L1210 leukemia ip in BDF1 mice, survival T/C
Assay: NCI In Vivo Anticancer Drug Screen. Data for tumor model L1210 Leukemia (intraperitoneal) in B6D2F1 (BDF1) mice
Conditions: endpoint: mean survival time; dose: 50.0 mg/kg/injection; schedule: Q04DX003 (ip); vehicle: saline; higher = longer survival
Inconclusive results and toxic doses are left out.

{"columns": ["COMPOUND", "T/C"],
 "data": [
  ["CC(=O)N1CCC(CC2CCCCC2)CC1", "100 % of control"],
  ["NC(=O)c1c[n+]([O-])ccn1", "108 % of control"],
  ["C[N+](C)(C)C1CC1", "103 % of control"],
  ["CCCC1(CCC)CN(C)C1=O", "98 % of control"],
  ["OCC1(CO)CC=CCC1", "105 % of control"],
  ["COc1ccc(CC(C)=O)cc1", "96 % of control"],
  ["COc1cccc(CC(C)N)c1OC (centres undefined)", "91 % of control"],
  ["CC[N+](CC)(CC)CCC[n+]1ccc(/C=N\\O)cc1", "100 % of control"],
  ["C#CC[N+](C)(C)CC#C", "102 % of control"]
]}
